# Test system: BT143
# test-summary: alamarBlue BTIC viability assay, BT143
# Format: cell-based
# assay-context: Homo sapiens; BTIC line BT143, alamarBlue
reported-metric: pIC50
Numbers only, as −log10 of the molar value.

// query GET /values?readout=pIC50&item= C1=C/COCc2cc(ccc2OCCN2CCCC2)Nc2nccc(n2)-c2cccc(c2)COC/1
// result 5.87

###

# Tested on: BT147
# test-summary: alamarBlue BTIC viability assay, BT147
# Type: cell-based
# assay-context: Homo sapiens; BTIC line BT147, alamarBlue
reported-metric: IC50 (nM)
One number for each entry, in nM.

// query GET /values?readout=IC50&item= C1=C/COCc2cc(ccc2OCCN2CCCC2)Nc2nccc(n2)-c2cccc(c2)COC/1
// result 990
